Tested on: Yersinia pseudotuberculosis YPIII
Test: Inhibition of T3S in Yersinia pseudotuberculosis YPIII expressing yopE-luxAB at 100 uM after 3 hrs by luciferase reporter gene assay
In this section, each of the molecules is paired with its reported inhibition.
recorded metric: inhibition (%)

> print(dat)
                             chemical.smiles  measured
 1  O=C(N/N=C/c1ccc(O)c(O)c1O)c1ccccc1[N+](=O)[O-]        74
 2   O=C(CCc1ccc(O)cc1)N/N=C/c1c(O)cc(O)cc1O        36
 3   O=C(COc1ccc(F)cc1)N/N=C/c1cc(I)cc(I)c1O        36
 4          O=C(N/N=C/c1cc(Br)ccc1O)c1ccncc1        95
 5  COc1cc(C(=O)N/N=C/c2cc(Cl)cc(Cl)c2O)cc(OC)c1OC        29
 6   COc1ccc(/C=N/NC(=O)CCc2ccc(O)cc2)c(O)c1        45
 7  CC(C)(C)c1cc(/C=N/NC(=O)c2cccc(C(F)(F)F)c2)c(O)c(C(C)(C)C)c1        11
 8          COc1ccc(/C=N/NC(=O)C(N)=O)c(O)c1        94
 9      COc1ccc(Br)c(/C=N/NC(=O)c2ccncc2)c1O        77
10  COc1cc(Br)cc(/C=N/NC(=O)CCc2ccc(O)cc2)c1O        36
11  O=C(N/N=C/c1cccc(F)c1O)c1ccc([N+](=O)[O-])cc1        20
12  COc1ccc(C(=O)N/N=C/c2cc(F)cc(Cl)c2O)cc1OC        56
13              N#CCC(=O)N/N=C/c1cc(Br)ccc1O        97

---

In this section, each of the compounds is paired with its reported inhibition.
Tested on: Yersinia pseudotuberculosis YPIII
Assay: Inhibition of T3S in Yersinia pseudotuberculosis YPIII expressing yopE-luxAB at 6.25 uM after 3 hrs by luciferase reporter gene assay
recorded metric: inhibition (%)

> print(dat)
                             chemical.smiles                       study.target  recorded.metric  measured
 1          O=C(N/N=C/c1ccc(Cl)cc1O)c1ccncc1  Yersinia pseudotuberculosis YPIII       inhibition         3
 2          NC(=O)C(=O)N/N=C/c1c(O)cc(O)cc1O  Yersinia pseudotuberculosis YPIII       inhibition        17
 3     COc1cc(Br)cc(/C=N/NC(=O)Cc2ccccc2)c1O  Yersinia pseudotuberculosis YPIII       inhibition        12
 4  COc1cc(Br)cc(/C=N/NC(=O)c2sc3ccccc3c2Cl)c1O  Yersinia pseudotuberculosis YPIII       inhibition        12
 5  CCN(CC)c1ccc(/C=N/NC(=O)COc2ccc(F)cc2)c(O)c1  Yersinia pseudotuberculosis YPIII       inhibition        17
 6  CC(C)(C)c1ccc(O)c(/C=N/NC(=O)Cc2ccccc2)c1  Yersinia pseudotuberculosis YPIII       inhibition         9
 7   O=C(COc1ccc(F)cc1)N/N=C/c1cc(I)cc(I)c1O  Yersinia pseudotuberculosis YPIII       inhibition        15
 8  O=C(N/N=C/c1cc(I)cc(I)c1O)c1cc(Cl)cc(Cl)c1  Yersinia pseudotuberculosis YPIII       inhibition        15
 9          COc1ccc(Br)c(/C=N/NC(=O)CC#N)c1O  Yersinia pseudotuberculosis YPIII       inhibition        17
10  COc1cc(C(=O)N/N=C/c2cc(Cl)cc(Cl)c2O)cc(OC)c1OC  Yersinia pseudotuberculosis YPIII       inhibition         8
11  COc1ccc(Br)c(C(=O)N/N=C/c2ccc(Cl)cc2O)c1  Yersinia pseudotuberculosis YPIII       inhibition        10
12   COc1ccc(/C=N/NC(=O)CCc2ccc(O)cc2)c(O)c1  Yersinia pseudotuberculosis YPIII       inhibition         4
13  COc1cccc(/C=N/NC(=O)c2ccccc2[N+](=O)[O-])c1O  Yersinia pseudotuberculosis YPIII       inhibition        14
14  O=C(N/N=C/c1ccc(O)c(O)c1O)c1ccccc1[N+](=O)[O-]  Yersinia pseudotuberculosis YPIII       inhibition        16
15   O=C(CCc1ccc(O)cc1)N/N=C/c1c(O)cc(O)cc1O  Yersinia pseudotuberculosis YPIII       inhibition        20
16  Cc1ccc(C(=O)N/N=C/c2cc(C(C)(C)C)ccc2O)cc1  Yersinia pseudotuberculosis YPIII       inhibition        14
17  COc1cccc(/C=N/NC(=O)c2cc(OC)c(OC)c(OC)c2)c1O  Yersinia pseudotuberculosis YPIII       inhibition        17
18        COc1cc(Br)cc(/C=N/NC(=O)C(N)=O)c1O  Yersinia pseudotuberculosis YPIII       inhibition         1
19  O=C(N/N=C/c1cc([N+](=O)[O-])cc([N+](=O)[O-])c1O)c1ccc(Br)cc1  Yersinia pseudotuberculosis YPIII       inhibition         9
20  O=C(N/N=C/c1cc(F)cc(Cl)c1O)c1cc(Cl)cc(Cl)c1  Yersinia pseudotuberculosis YPIII       inhibition        12
21       COc1cccc(C(=O)N/N=C/c2cccc(F)c2O)c1  Yersinia pseudotuberculosis YPIII       inhibition         9
22        O=C(N/N=C/c1cc(Br)ccc1O)c1ccccc1Cl  Yersinia pseudotuberculosis YPIII       inhibition        10
23      COc1ccc(Br)c(/C=N/NC(=O)c2ccncc2)c1O  Yersinia pseudotuberculosis YPIII       inhibition        18
24          COc1ccc(/C=N/NC(=O)C(N)=O)c(O)c1  Yersinia pseudotuberculosis YPIII       inhibition         4

---

Test system: Yersinia pseudotuberculosis YPIII
Experiment: Inhibition of T3S in Yersinia pseudotuberculosis YPIII expressing yopE-luxAB at 3.13 uM after 3 hrs by luciferase reporter gene assay
In this section, each of the molecules is paired with its reported inhibition.
recorded metric: inhibition (%)

> print(dat)
                             chemical.smiles                       study.target  measured
 1          O=C(N/N=C/c1ccc(Cl)cc1O)c1ccncc1  Yersinia pseudotuberculosis YPIII        -1
 2  O=C(N/N=C/c1cccc(F)c1O)c1ccc([N+](=O)[O-])cc1  Yersinia pseudotuberculosis YPIII         7
 3  COc1ccc(/C=N/NC(=O)c2sc3ccccc3c2Cl)c(O)c1  Yersinia pseudotuberculosis YPIII        -2
 4  CC(C)(C)c1cc(/C=N/NC(=O)COc2ccc([N+](=O)[O-])cc2)c(O)c(C(C)(C)C)c1  Yersinia pseudotuberculosis YPIII        -2
 5      COc1ccc(Br)c(/C=N/NC(=O)c2snnc2C)c1O  Yersinia pseudotuberculosis YPIII        14
 6  CC(C)(C)c1ccc(O)c(/C=N/NC(=O)c2ccc(Br)cc2)c1  Yersinia pseudotuberculosis YPIII         0
 7          NC(=O)C(=O)N/N=C/c1c(O)cc(O)cc1O  Yersinia pseudotuberculosis YPIII         5
 8  COc1cccc(/C=N/NC(=O)c2cc(OC)c(OC)c(OC)c2)c1O  Yersinia pseudotuberculosis YPIII        14
 9  O=C(N/N=C/c1c(O)cc(O)cc1O)c1sc2ccccc2c1Cl  Yersinia pseudotuberculosis YPIII        10
10  Cc1ccc(C(=O)N/N=C/c2cc(C(C)(C)C)ccc2O)cc1  Yersinia pseudotuberculosis YPIII         6
11  COc1cc([N+](=O)[O-])cc(/C=N/NC(=O)CC#N)c1O  Yersinia pseudotuberculosis YPIII         4
12       COc1cccc(C(=O)N/N=C/c2cccc(F)c2O)c1  Yersinia pseudotuberculosis YPIII         7
13      COc1ccc(Br)c(/C=N/NC(=O)c2ccncc2)c1O  Yersinia pseudotuberculosis YPIII         9
14   COc1ccc(/C=N/NC(=O)CCc2ccc(O)cc2)c(O)c1  Yersinia pseudotuberculosis YPIII        -1
15  CC(C)(C)c1cc(/C=N/NC(=O)c2cccc(C(F)(F)F)c2)c(O)c(C(C)(C)C)c1  Yersinia pseudotuberculosis YPIII       -10
16  O=C(N/N=C/c1cc([N+](=O)[O-])cc([N+](=O)[O-])c1O)c1ccc(Br)cc1  Yersinia pseudotuberculosis YPIII        -6
17  O=C(N/N=C/c1cc(I)cc(I)c1O)c1cc(Cl)cc(Cl)c1  Yersinia pseudotuberculosis YPIII        12
18         O=C(Cc1ccccc1)N/N=C/c1cc(Br)ccc1O  Yersinia pseudotuberculosis YPIII         4
19  COc1ccc(Br)c(C(=O)N/N=C/c2cc(C(C)(C)C)ccc2O)c1  Yersinia pseudotuberculosis YPIII         0
20  CCN(CC)c1ccc(/C=N/NC(=O)COc2ccc(F)cc2)c(O)c1  Yersinia pseudotuberculosis YPIII        11
21  O=C(CC12CC3CC(CC(C3)C1)C2)N/N=C/c1ccc(Cl)cc1O  Yersinia pseudotuberculosis YPIII         7
22  O=C(N/N=C/c1ccc(O)c(O)c1O)c1ccccc1[N+](=O)[O-]  Yersinia pseudotuberculosis YPIII         5
23     COc1cc(Br)cc(/C=N/NC(=O)Cc2ccccc2)c1O  Yersinia pseudotuberculosis YPIII        18
